- Tested on: PfAP2-HC AP2 domain (GST-tagged)
- procedure-details: gcPBM binding intensity (ln(normalized median fluorescence intensity)); higher = stronger DNA binding
Whole data set: some 25,000 sequences, median “ln(normalized median fluorescence intensity)” near 9.7, cut for the highest 2% near 11. This is one part of a sample in which the highest values are shown more often than they occur.
Here the recorded gcPBM binding intensity (ln) is given for each entry.
Please reply with the number alone, leaving off any unit.

Recorded results for 6 sequences are shown here.
polymer-sequence	gcPBM binding intensity (ln)
TTATAAATGAATAAATGTACAAAATATATATATATA [XGTACX_site8829]	9.66
GTATATATTTAAACACGTACACAAAACCCAAAAAAT [XGTACX_site8110]	9.95
TATAAATATAAATACACACACACATCAATACAGATA [CACACA_site5850]	11
AATCGTGTTCTGAATACACACTAATACAAATTTGTA [CACACA_site6058]	9.75
ATTATTATACACAAATGTACATGTGAATTTTTTTTC [XGTACX_site6982]	9.63
TATACAGATATATATACACACATATATATAAATACA [CACACA_site4383]	9.97

Ask: Entry AAAAATGAATTATTTTGTACATATATATATATATAT [XGTACX_site3410] has what gcPBM binding intensity (ln)?
Reply: 9.74

Ask: # gcPBM binding intensity (ln) lookup, item TCAATAAAAAAAAACGCACACACAAATATATTCCAT [CACACA_site1223]
Reply: 11

Ask: Data request, read-out gcPBM binding intensity (ln), for AAAGGTGTATTTAATACACACGTGTCATTAAAATTG [CACACA_site4508]
Reply: 9.71

Ask: Looking for the measured gcPBM binding intensity (ln) of TAAATTATAAATTGCACACATATTTTTATATTTATA [CACACA_site2976] , can you help?
Reply: 9.77

Ask: Please look up its gcPBM binding intensity (ln): AGCTCTATATTTTACACATGCGATTTGGATATATAT [TGCATGCA_site105]
Reply: 9.84

Ask: Item TGAACATACATCAAAAGTACAAACTCGCATGTTATA [XGTACX_site3320] has what recorded gcPBM binding intensity (ln)?
Reply: 9.67

Ask: What value of measured gcPBM binding intensity (ln) is listed for ACAATTTACACTTAAACACACAAAAAAAAGTTATAT [CACACA_site7056] ?
Reply: 9.98

Ask: What gcPBM binding intensity (ln) value was documented for this sequence, GAATATGTTAACATTTGTACATAAAATTTTTTACAA [XGTACX_site2444] ?
Reply: 9.49

Ask: What measured gcPBM binding intensity (ln) goes with TATTAATTAAACCATACACACATAATTTTTTTATAA [CACACA_site843] ?
Reply: 9.85

Ask: What value of measured gcPBM binding intensity (ln) is listed for TATTTAACACCTTATACACACTTTCTTCCTTTTTTA [CACACA_site4590] ?
Reply: 10.1

Ask: What gcPBM binding intensity (ln) value was documented for this sequence, TTTTCTTGTAAATTACGTACGAATGTGTAGAGAAAT [XGTACX_site1339] ?
Reply: 9.47

Ask: Fill in: gcPBM binding intensity (ln) of TGTATGATAACTATAGTGCATTTGGTAATTTTTCCA is ___
Reply: 9.51
